What inhibition was measured for each of the following?
protocol-text: Inhibition of amyloid beta (1 to 40) fibril formation at 10 uM after 8 days by thioflavin T fluorescent dye assay

q: Tell me the measured inhibition of CC(=O)Nc1ccc2cc3ccc(NC(=O)CCN)cc3nc2c1 , please.
a: 50%

q: Tell me the measured inhibition of COc1cc(/C=C/C(=O)CC(=O)/C=C/c2ccc(O)c(OC)c2)ccc1O , please.
a: 80%

q: Tell me the measured inhibition of CC(=O)Nc1ccc2cc3ccc(NC(=O)Cn4cc(CNC(=O)CCCCC5CCSS5)nn4)cc3nc2c1 (stereo not given) , please.
a: 50%

q: Tell me the measured inhibition of CC(=O)Nc1ccc2cc3ccc(NC(=O)CCNC(=O)CCCCC4CCSS4)cc3nc2c1 (stereo not given) , please.
a: 50%

Taken from ChEMBL document CHEMBL1759946.
